# Target Or System: Pol theta polymerase domain (residues 1819-2590) (Homo sapiens, UniProt O75417)
# Lookup of reported IC50 keyed by entry

// solved cases for IC50 follow
{"Molecule": "CN(C(=O)CNc1nc(C(F)(F)F)cc(C(F)(F)F)c1C#N)c1ccc(OC2CC2)cc1 [Example 5]", "IC50": "< 200 nM"}
{"Molecule": "Cc1nc(NCC(=O)N(C)c2ccccc2)c(C#N)cc1Cl [Example 38]", "IC50": "200 to 500 nM"}

Proceed to the following item.
Request: Give IC50 (Pol theta polymerase domain (residues 1819-2590) (Homo sapiens, UniProt O75417)) of the following molecule: N#Cc1c(C(F)(F)F)cc(C(F)(F)F)nc1NCC(=O)N(CC(F)(F)F)c1ccc(F)cc1 [Example 8]
Response: < 200 nM

====

# Target Or System: Pol theta polymerase domain (residues 1819-2590) (Homo sapiens)
# Sequence (O75417 1819-2590): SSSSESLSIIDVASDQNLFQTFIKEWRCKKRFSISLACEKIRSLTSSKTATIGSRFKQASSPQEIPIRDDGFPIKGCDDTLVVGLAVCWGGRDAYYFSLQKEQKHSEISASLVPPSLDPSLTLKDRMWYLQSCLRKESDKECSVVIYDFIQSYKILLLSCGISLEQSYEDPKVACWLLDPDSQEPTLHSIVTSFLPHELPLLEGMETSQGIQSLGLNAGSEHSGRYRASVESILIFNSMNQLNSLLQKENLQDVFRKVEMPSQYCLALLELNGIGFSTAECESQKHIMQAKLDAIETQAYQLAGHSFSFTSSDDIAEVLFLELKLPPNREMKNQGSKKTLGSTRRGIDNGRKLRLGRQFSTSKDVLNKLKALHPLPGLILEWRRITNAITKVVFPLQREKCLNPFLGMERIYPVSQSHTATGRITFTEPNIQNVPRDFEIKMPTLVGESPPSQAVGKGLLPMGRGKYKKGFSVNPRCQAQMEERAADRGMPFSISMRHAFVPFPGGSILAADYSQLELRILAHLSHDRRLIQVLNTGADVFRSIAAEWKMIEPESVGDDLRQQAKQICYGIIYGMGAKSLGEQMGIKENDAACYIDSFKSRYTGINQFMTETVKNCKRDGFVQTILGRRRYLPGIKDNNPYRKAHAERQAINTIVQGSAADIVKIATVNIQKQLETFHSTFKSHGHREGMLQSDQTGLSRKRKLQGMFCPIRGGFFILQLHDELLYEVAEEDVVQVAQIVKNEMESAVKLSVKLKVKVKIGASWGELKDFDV
Below: a set of entries, each annotated with reported IC50.

{"Smiles Input": "CN(C(=O)CNc1nc(C(F)(F)F)cc(C(F)(F)F)c1C#N)c1ccc2c(ccn2C)c1", "IC50": "< 200 nM"}
{"Smiles Input": "COc1ccc(N(C)C(=O)CNc2nc(C)c(Cl)c(C)c2C#N)cc1", "IC50": "< 200 nM"}

Request: Find the recorded IC50 belonging to Cc1cc(NCC(=O)N(C)c2ccccc2)nc(C)c1Cl and report it.
Response: 500 to 1000 nM

Request: What value of measured IC50 is listed for CN(C(=O)CNc1nc(C(F)(F)F)cc(C(F)(F)F)c1C#N)c1ccc2ncncc2c1 ?
Response: 200 to 500 nM

Request: Given CN(C(=O)CNc1cc(Cl)cc(Cl)c1)c1ccc(F)cc1 , state its recorded IC50.
Response: 500 to 1000 nM

Request: Which IC50 value belongs to CN(C(=O)CNc1cc(Cl)cc(C(F)(F)F)c1C#N)c1ccc(F)cc1 ?
Response: < 200 nM

Request: Which value of IC50 has been reported for Cc1nc(OCC(=O)N(C)c2ccc(Br)cc2)c(C#N)c(C)c1Cl in the records?
Response: < 200 nM

Request: Query (molecule): Cc1coc2ccc(N(C)C(=O)CNc3nc(C(F)(F)F)cc(C(F)(F)F)c3C#N)cc12 ; field requested: IC50
Response: < 200 nM

Request: Please give the measured IC50 for this molecule: COc1ccc(N(C)C(=O)CNc2nc(C(F)(F)F)cc(C(F)(F)F)c2C#N)cc1
Response: < 200 nM
